Values from patent US12338296B2

Give measured pKd for each item. Keep answers brief.
- tested.system: eIF4E (Homo sapiens, UniProt P06730)
- Construct: made in house; Plasmid and cells were provided by Cyclacel Ltd., Dundee
- Sequence (P06730 whole entry): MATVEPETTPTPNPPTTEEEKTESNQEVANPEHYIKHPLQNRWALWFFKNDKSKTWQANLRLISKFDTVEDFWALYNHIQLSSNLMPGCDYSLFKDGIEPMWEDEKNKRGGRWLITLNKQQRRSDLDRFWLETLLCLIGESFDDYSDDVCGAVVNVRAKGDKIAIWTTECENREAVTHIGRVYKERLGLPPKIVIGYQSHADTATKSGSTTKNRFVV
- experimental.details: Surface plasmon resonance Kd determination on immobilized eIF4E (Biacore T100, CM5 chip)
- Format: binding
- experimental.parameters: SPR, eIF4E immobilized on CM5 chip, 1:1 binding model, three separate titrations
pKd: −log10 of the molar value. Peptide text beside a SMILES is read from it.

Some compounds with known pKd results, for comparison:
CSCC[C@@H]1NC(=O)[C@H](CCC(=O)O)NC(=O)[C@@H](NC(=O)[C@H](C)N)CSSC[C@@H](C(=O)NCC(N)=O)NC(=O)[C@H](CC(=O)O)NC(=O)[C@H](CCC(N)=O)NC(=O)[C@H](C)NC(=O)[C@H](Cc2ccccc2)NC(=O)CNC1=O [EE-2E] (HELM PEPTIDE1{A.C.E.M.G.F.A.Q.D.C.G.[am]}$PEPTIDE1,PEPTIDE1,2:R3-10:R3$$$V2.0)    < 4.30
C[C@H](N)C(=O)N[C@H]1CSSC[C@@H](C(=O)NCC(N)=O)NC(=O)[C@H](CC(=O)O)NC(=O)[C@H](CCC(N)=O)NC(=O)[C@H](Cc2ccccc2)NC(=O)[C@H](Cc2ccccc2)NC(=O)CNC(=O)[C@H](C)NC(=O)[C@H](CCC(=O)O)NC1=O [EE-2B] (HELM PEPTIDE1{A.C.E.A.G.F.F.Q.D.C.G.[am]}$PEPTIDE1,PEPTIDE1,2:R3-10:R3$$$V2.0)    < 4.30

Field: pKd. Fill in for each record below.
1. CSCC[C@@H]1NC(=O)[C@H](CCC(=O)O)NC(=O)[C@@H](NC(=O)[C@H](C)N)CSSC[C@@H](C(=O)NCC(N)=O)NC(=O)[C@H](CC(=O)O)NC(=O)[C@H](CCC(N)=O)NC(=O)[C@H](CC(C)C)NC(=O)[C@H](CC(C)C)NC(=O)CNC1=O [EE-38] (HELM PEPTIDE1{A.C.E.M.G.L.L.Q.D.C.G.[am]}$PEPTIDE1,PEPTIDE1,2:R3-10:R3$$$V2.0)
2. CSCC[C@@H]1NC(=O)[C@H](CCC(=O)O)NC(=O)[C@@H](NC(=O)[C@H](C)NC(C)=O)CSSC[C@@H](C(=O)NCC(N)=O)NC(=O)[C@H](CC(=O)O)NC(=O)[C@H](CCC(N)=O)NC(=O)[C@H](Cc2ccccc2)NC(=O)[C@H](Cc2ccccc2)NC(=O)CNC1=O [EE-11]
3. CSCC[C@@H]1NC(=O)[C@H](CCC(=O)O)NC(=O)[C@@H](NC(=O)[C@H](C)N)CSSC[C@@H](C(=O)NCC(N)=O)NC(=O)[C@H](CC(=O)O)NC(=O)[C@H](CCC(N)=O)NC(=O)[C@H](CC(C)C)NC(=O)[C@H](Cc2ccccc2)NC(=O)CNC1=O [EE-34] (HELM PEPTIDE1{A.C.E.M.G.F.L.Q.D.C.G.[am]}$PEPTIDE1,PEPTIDE1,2:R3-10:R3$$$V2.0)
4. CSCC[C@@H]1NC(=O)[C@H](C)NC(=O)[C@@H](NC(=O)[C@H](C)N)CSSC[C@@H](C(=O)NCC(N)=O)NC(=O)[C@H](CC(=O)O)NC(=O)[C@H](CCC(N)=O)NC(=O)[C@H](Cc2ccccc2)NC(=O)[C@H](Cc2ccccc2)NC(=O)CNC1=O [EE-2A] (HELM PEPTIDE1{A.C.A.M.G.F.F.Q.D.C.G.[am]}$PEPTIDE1,PEPTIDE1,2:R3-10:R3$$$V2.0; bridges inferred)

*A*
1. < 4.30
2. 6.00
3. < 4.30
4. 4.96

* * *

- tested.system: eIF4E (Homo sapiens, UniProt P06730)
- Construct: made in house; Plasmid and cells were provided by Cyclacel Ltd., Dundee
- experimental.details: Surface plasmon resonance Kd determination on immobilized eIF4E (Biacore T100, CM5 chip)
- Type: binding
- experimental.parameters: KD relative to EE-2 (SPR)
assay.endpoint: Fold change
One number for each entry.

*Q* Recorded Fold change for CSCC[C@@H]1NC(=O)[C@H](CCC(=O)O)NC(=O)[C@@H](NC(=O)[C@H](C)NC(C)=O)CSSC[C@@H](C(=O)NCC(N)=O)NC(=O)[C@H](CC(=O)O)NC(=O)[C@H](CCC(N)=O)NC(=O)[C@H](Cc2ccccc2)NC(=O)[C@H](Cc2ccccc2)NC(=O)CNC1=O [EE-11] , please?
*A* 4.9

* * *

- tested.system: eIF4E (Homo sapiens, UniProt P06730)
- Construct: made in house; Plasmid and cells were provided by Cyclacel Ltd., Dundee
- experimental.details: Surface plasmon resonance Kd determination on immobilized eIF4E (Biacore T100, CM5 chip)
- Assay type: binding
- experimental.parameters: SPR, eIF4E immobilized on CM5 chip, 1:1 binding model, three separate titrations
Peptide text beside a SMILES is read from it.
Give measured Kd for each item. Keep answers brief.

Some molecules with known Kd results, for comparison:
CSCC[C@@H]1NC(=O)[C@H](CCC(=O)O)NC(=O)[C@@H](NC(=O)[C@H](C)N)CSSC[C@@H](C(=O)NCC(N)=O)NC(=O)[C@H](CC(=O)O)NC(=O)CNC(=O)[C@H](Cc2ccccc2)NC(=O)[C@H](Cc2ccccc2)NC(=O)CNC1=O [EE-40] (HELM PEPTIDE1{A.C.E.M.G.F.F.G.D.C.G.[am]}$PEPTIDE1,PEPTIDE1,2:R3-10:R3$$$V2.0)    0.4 µM
CSCC[C@@H]1NC(=O)[C@H](CCC(=O)O)NC(=O)[C@@H](NC(=O)[C@H](C)N)CSSC[C@@H](C(=O)NCC(N)=O)NC(=O)[C@H](CC(=O)O)NC(=O)[C@H](CCC(N)=O)NC(=O)[C@H](Cc2ccccc2)NC(=O)[C@H](Cc2ccccc2)NC(=O)[C@H](C)NC1=O [EE-2C] (HELM PEPTIDE1{A.C.E.M.A.F.F.Q.D.C.G.[am]}$PEPTIDE1,PEPTIDE1,2:R3-10:R3$$$V2.0; bridges inferred)    32 µM
CSCC[C@@H]1NC(=O)[C@H](CCC(=O)O)NC(=O)[C@@H](NC(=O)[C@H](C)N)CSSC[C@@H](C(=O)NCC(N)=O)NC(=O)[C@H](CC(=O)O)NC(=O)[C@H](CCC(N)=O)NC(=O)[C@H](Cc2ccccc2)NC(=O)[C@H](CC(C)C)NC(=O)CNC1=O [EE-33] (HELM PEPTIDE1{A.C.E.M.G.L.F.Q.D.C.G.[am]}$PEPTIDE1,PEPTIDE1,2:R3-10:R3$$$V2.0)    > 50 µM
CSCC[C@@H]1NC(=O)[C@H](CCC(=O)O)NC(=O)[C@@H](NC(=O)[C@H](C)N)CSSC[C@@H](C(=O)NCC(N)=O)NC(=O)[C@H](CC(=O)O)NC(=O)[C@H](CCC(N)=O)NC(=O)[C@H](Cc2ccccc2)NC(=O)[C@H](Cc2ccccc2)NC(=O)[C@@H]2CCCN2C1=O [EE-29] (HELM PEPTIDE1{A.C.E.M.P.F.F.Q.D.C.G.[am]}$PEPTIDE1,PEPTIDE1,2:R3-10:R3$$$V2.0)    > 50 µM

*Q* Recorded Kd for CSCC[C@@H]1NC(=O)[C@H](CCC(=O)O)NC(=O)[C@@H](NC(=O)[C@H](C)N)CSSC[C@@H](C(=O)NCC(N)=O)NC(=O)[C@H](CC(=O)O)NC(=O)[C@H](CCC(N)=O)NC(=O)[C@H](Cc2ccccc2)NC(=O)[C@H](Cc2ccccc2)NC(=O)CCNC1=O [EE-27] (HELM PEPTIDE1{A.C.E.M.[bAla].F.F.Q.D.C.G.[am]}$PEPTIDE1,PEPTIDE1,2:R3-10:R3$$$V2.0) , please?
*A* > 50 µM
